- assay-system: mAChR M1 (UniProt P11229)
- assay-explanation: mAChR M1 cell-based functional assay (calcium mobilization, potentiation of EC20 acetylcholine response)
- condition-info: CHO-K1 cells expressing mAChR M1; increase in EC20 acetylcholine response; >10 μM estimated where no plateau in the curve
pEC50: −log10 of the molar value.
Measured pEC50 values are reported for all entries that follow.
property-label: pEC50

1. Cn1cc(-c2ccc(CN3C(=O)C4(CCN(C5CCOCC5)C4)c4ccccc43)c(F)c2)cn1 (centres unmarked) [Compound B10]	5.62
2. CN1CCC2(CC1)C(=O)N(Cc1ccc(-c3cnn(C)c3)cc1F)c1ccccc12 [Compound B36]	5.40
3. CC(C)CN1CCC2(C1)C(=O)N(Cc1ccc(-c3cnn(C)c3)cc1F)c1ccccc12 (centres unmarked) [Compound B49]	5.22
4. Cn1cc(-c2ccc(CN3C(=O)C4(CCN(C5CCCCC5)C4)c4ccccc43)c(F)c2)cn1 (centres unmarked) [Compound B5]	5.74
5. Cn1cc(-c2ccc(CN3C(=O)C4(CCN(C5CCCOC5)C4)c4ccccc43)c(F)c2)cn1 (centres unmarked) [Compound B19]	5.54
6. CCn1cc(-c2ccc(CN3C(=O)C4(CCN(C5CCCC5)C4)c4ccccc43)c(F)c2)cn1 (centres unmarked) [Compound B17]	5.55
